meta.source: patent US9611278B2

Emax: recorded values
Molecular target: sGC α1/β1 heterodimer stably expressed in CHO-K1 cells (CHO-K1/sGC) (Homo sapiens, UniProt Q02108+Q02153)
Construct: expressed in transfected cells
Sequence (Q02108 1-690): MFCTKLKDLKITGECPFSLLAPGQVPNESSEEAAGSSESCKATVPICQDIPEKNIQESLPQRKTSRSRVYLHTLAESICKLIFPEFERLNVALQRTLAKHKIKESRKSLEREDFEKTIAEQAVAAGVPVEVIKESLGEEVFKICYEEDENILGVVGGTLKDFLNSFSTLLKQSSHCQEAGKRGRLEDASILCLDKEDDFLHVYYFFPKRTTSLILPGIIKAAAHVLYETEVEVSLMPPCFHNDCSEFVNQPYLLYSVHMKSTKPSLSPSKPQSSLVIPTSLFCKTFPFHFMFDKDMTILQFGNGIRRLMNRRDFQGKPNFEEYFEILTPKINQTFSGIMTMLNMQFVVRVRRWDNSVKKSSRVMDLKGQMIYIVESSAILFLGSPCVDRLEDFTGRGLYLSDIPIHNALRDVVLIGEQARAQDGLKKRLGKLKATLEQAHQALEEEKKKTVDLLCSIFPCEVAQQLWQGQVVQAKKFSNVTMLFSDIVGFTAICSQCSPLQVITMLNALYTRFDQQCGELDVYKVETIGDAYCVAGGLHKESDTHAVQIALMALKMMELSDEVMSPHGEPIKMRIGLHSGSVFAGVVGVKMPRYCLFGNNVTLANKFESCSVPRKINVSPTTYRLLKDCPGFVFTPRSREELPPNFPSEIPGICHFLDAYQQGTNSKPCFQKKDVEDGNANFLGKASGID
Sequence (Q02153 1-619): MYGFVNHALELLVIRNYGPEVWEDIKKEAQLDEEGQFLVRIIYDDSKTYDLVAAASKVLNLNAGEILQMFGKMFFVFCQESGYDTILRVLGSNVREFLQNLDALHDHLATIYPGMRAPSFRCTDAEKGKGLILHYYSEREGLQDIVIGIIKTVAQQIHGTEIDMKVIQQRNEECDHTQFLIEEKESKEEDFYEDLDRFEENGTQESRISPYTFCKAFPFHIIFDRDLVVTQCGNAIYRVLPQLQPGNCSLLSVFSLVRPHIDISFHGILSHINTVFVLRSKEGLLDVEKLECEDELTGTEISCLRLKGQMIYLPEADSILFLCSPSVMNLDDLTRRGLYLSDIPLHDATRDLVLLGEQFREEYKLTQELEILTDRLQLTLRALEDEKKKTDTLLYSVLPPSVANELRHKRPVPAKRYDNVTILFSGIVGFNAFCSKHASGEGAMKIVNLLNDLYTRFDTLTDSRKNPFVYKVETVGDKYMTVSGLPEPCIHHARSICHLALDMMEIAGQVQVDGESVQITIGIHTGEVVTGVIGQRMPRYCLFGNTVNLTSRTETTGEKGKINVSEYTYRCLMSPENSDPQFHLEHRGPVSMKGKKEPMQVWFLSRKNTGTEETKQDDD
Assay: Cell-based sGC Functional Assay (CASA Assay)
Conditions: CHO-K1, activation as percentage of maximum cGMP production of Compound A (set to 100%); read-out: % Act.
Give just the numeric value; % need not be written.

For the compound Cn1ncc2c(-c3nc(N)c4c(n3)NC(=O)C4(C)c3ccc(F)cn3)nc(CCC(F)(F)C(F)(F)F)nc21 (stereo not shown) , what Emax is on record?
123

Also [2H]C([2H])([2H])n1ncc2c(-c3nc(N)c4c(n3)NC(=O)C4(C)c3noc(C)n3)nc(CCC(F)(F)C(F)(F)F)nc21 (stereo not shown) , if possible.
157

Could you do the same for [2H]C([2H])([2H])n1ncc2c(-c3nc(N)c4c(n3)NC(=O)C4(CC)c3nnc(C4CC4)o3)nc(CCC(F)(F)C(F)(F)F)nc21 (stereo not shown) , please?
120

What would you report for CC(C)c1nnc(C2(C3CC3)C(=O)Nc3nc(-c4nc(CCC(F)(F)C(F)(F)F)nc5c4cnn5C)nc(N)c32)o1 (stereo not shown) ?
113

Note, next up: Cn1ncc2c(-c3nc(N)c4c(n3)NC(=O)C4(C)n3cnnn3)nc(CCC(F)(F)C(F)(F)F)nc21 (single isomer, unassigned)
111

Next entry: CCCCc1nc(-c2nc(N)c3c(n2)NC(=O)C3(C)c2ccc(F)cn2)c2cnn(C)c2n1 (stereo not shown)
109

Then CC(C)c1nnc(C2(C)C(=O)Nc3nc(-c4nc(CCC(F)(F)C(F)(F)F)nc5c4cnn5C)nc(N)c32)o1 (stereo not shown) ?
176

Another compound to check: CCn1ncc(C2(C)C(=O)Nc3nc(-c4nc(CCC(F)(F)C(F)(F)F)nc5c4cnn5C)nc(N)c32)n1 (stereo not shown)
169

Continuing:
Fill in the blank: the reported Emax of CC(C)n1cc(C2(C3CC3)C(=O)Nc3nc(-c4nc(CCC(F)(F)C(F)(F)F)nc5c4cnn5C)nc(N)c32)cn1 (stereo not shown) is ____.
72

Now try Cn1ncc2c(-c3nc(N)c4c(n3)NC(=O)C4(C)c3ccc(F)cn3)nc(CCCC(F)(F)F)nc21 (stereo not shown) .
115
